Measured inhibition at 0.1 µM, listed per entry for reference.
- TEST_TARGET: DNA-PK (Homo sapiens (Human))
- PROTOCOL_DESCRIPTION: Z'-LYTE / Adapta kinase assay, DNA-PK
- Format: biochemical
- ASSAY_SETUP: read-out: DNA-PK % Inh. @ 100 nM
PROPERTY_MEASURED: inhibition at 0.1 µM

# COMPOUND, PROPERTY_MEASURED, RESULT
measured = [
    ("CC(Nc1c(C#N)cnc2ccc(-c3cccc(-c4nnc[nH]4)c3)cc12)c1ccccc1 (centres unmarked) [Compound 128]", "inhibition at 0.1 µM", "< 10%"),
    ("COc1ncc(-c2ccc3ncnc(N[C@H](C)c4ccccc4)c3c2)cc1C#N [Compound 132]", "inhibition at 0.1 µM", "< 10%"),
    ("CC(Nc1c(C#N)cnc2ccc(-c3cc(Cl)c(O)c(Cl)c3)cc12)c1ccccc1 (centres unmarked) [Compound 131]", "inhibition at 0.1 µM", "< 10%"),
    ("C[C@@H](Nc1c(C#N)cnc2ccc(-c3cnc(N)nc3)cc12)c1ccccc1 [Compound 53R]", "inhibition at 0.1 µM", "10 to 80%"),
    ("CC(Nc1c(C#N)cnc2ccc(-c3cncc(O)c3)cc12)c1ccccc1 (centres unmarked) [Compound 61]", "inhibition at 0.1 µM", "10 to 80%"),
    ("CC(Nc1ncnc2ccc(-c3cnc4[nH]ncc4c3)cc12)c1ccccc1 (centres unmarked) [Compound 8]", "inhibition at 0.1 µM", "10 to 80%"),
    ("CC(Nc1c(C#N)cnc2ccc(-c3cccnc3)cc12)c1ccccc1 (centres unmarked) [Compound 123]", "inhibition at 0.1 µM", "10 to 80%"),
    ("CC(Nc1ncnc2ccc(-c3cnc4cnccn34)cc12)c1ccccc1 (centres unmarked) [Compound 139]", "inhibition at 0.1 µM", "< 10%"),
]
